Test system: 379773-124-R-J2-PDC spheroid viability
experiment: Anticancer human tumor 379773-124-R-J2-PDC patient-derived endometrial carcinoma cell line growth inhibition [POLQ]; active = viability on the fitted dose curve at most 10% of control; inactive = the rest
study conditions: second compound 1 µM; first compound 1 µM; spheroids with HUVEC and MSC
Hi! Could you answer with just one of these? yes (1) (active), no (0) (inactive)

Below are worked cases with known answers.
compound: O=c1[nH]cc(F)c(=O)[nH]1 + Nc1ccc(C#CCN(C(=O)Cc2ncc(C(F)(F)F)cc2C(F)(F)F)c2ccc(F)cc2)nn1
discrete label: no (0)
--
compound: Nc1ccn(C2OC(CO)C(O)C2(F)F)c(=O)n1 (stereo unspecified) + Cc1cccc(N(C)C(=O)C2C(O)CCN2c2nc(C)cc(C(F)(F)F)c2C#N)c1
discrete label: yes (1)
--
compound: COc1cc2cc(C(=O)CCC(=O)O)sc2cc1OC + Cc1cccc(N(C)C(=O)C2C(O)CCN2c2nc(C)cc(C(F)(F)F)c2C#N)c1
discrete label: no (0)
--
compound: CC1COCCN1c1cc(-c2ccnn2C)c2ccnc(-c3ccn[nH]3)c2n1 (stereo unspecified) + Nc1ccc(C#CCN(C(=O)Cc2ncc(C(F)(F)F)cc2C(F)(F)F)c2ccc(F)cc2)nn1
discrete label: no (0)
--
compound: CC1COCCN1c1cc(C2(O)CC3CCC(C2)O3)c2cnn(-c3ccn[nH]3)c2n1 (stereo unspecified) + Nc1ccc(C#CCN(C(=O)Cc2ncc(C(F)(F)F)cc2C(F)(F)F)c2ccc(F)cc2)nn1
discrete label: yes (1)

Let's switch to this compound now.
Hi, sorry to bother you, what did the test record for O=C(Nc1ccc(O)c(NS(=O)(=O)c2ccc(F)cc2)c1)c1ccc(-c2ccccc2)cc1 + Nc1ccc(C#CCN(C(=O)Cc2ncc(C(F)(F)F)cc2C(F)(F)F)c2ccc(F)cc2)nn1 ?
no (0)

---

Reported values of viability, T/C for individual entries
System: 379773-124-R-J2-PDC spheroid viability
experiment: Anticancer human tumor 379773-124-R-J2-PDC cell line growth inhibition [POLQ];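 also: spheroids exposed to drugs for seven days before readout; percent viability relative to DMSO vehicle control taken as 100%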
study conditions: second compound 0.0316 µM; first compound 0.1 µM; hits give low values; spheroids with HUVEC and MSC
Experimental: Multicellular complex tumor spheroid response to Polymerase (POL) inhibitors (novobiocin, ART-558, RP6685) in combination with a variety of drugs and investigational agents in selected tumor cell lines The POL inhibitors (novobiocin, ART-558, and RP6685) were evaluated both individually and in combination with standard of care and investigational anticancer small molecules within a complex spheroid model of solid tumors. . […]
Quick note: give the figure in %, leave out the unit.

molecule: Nc1ccn(C2OC(CO)C(O)C2(F)F)c(=O)n1 (stereo not given) + COC1C(OC(N)=O)C(O)C(Oc2ccc3c(O)c(NC(=O)c4ccc(O)c(CC=C(C)C)c4)c(=O)oc3c2C)OC1(C)C
viability, T/C, %: 7.21

molecule: CC(C)n1c(=O)n(C)c2cnc3cc(F)c(-c4ccc(OCCCN5CCCCC5)nc4)cc3c21 + COC1C(OC(N)=O)C(O)C(Oc2ccc3c(O)c(NC(=O)c4ccc(O)c(CC=C(C)C)c4)c(=O)oc3c2C)OC1(C)C
viability, T/C, %: 74

molecule: C=CCn1c(=O)c2cnc(Nc3ccc(N4CCN(C)CC4)cc3)nc2n1-c1cccc(C(C)(C)O)n1 + Cc1cccc(N(C)C(=O)C2C(O)CCN2c2nc(C)cc(C(F)(F)F)c2C#N)c1
viability, T/C, %: 98

molecule: CNCc1ccc(-c2[nH]c3cc(F)cc4c3c2CCNC4=O)cc1 + Nc1ccc(C#CCN(C(=O)Cc2ncc(C(F)(F)F)cc2C(F)(F)F)c2ccc(F)cc2)nn1
viability, T/C, %: 91.7

molecule: COc1cccc2c1C(=O)c1c(O)c3c(c(O)c1C2=O)CC(O)(C(=O)CO)CC3OC1CC(N)C(O)C(C)O1 (stereo not given) + Nc1ccc(C#CCN(C(=O)Cc2ncc(C(F)(F)F)cc2C(F)(F)F)c2ccc(F)cc2)nn1
viability, T/C, %: 41.7

Consider the molecule CCc1cc2c(N3CCc4c(cc(Cn5ccnc5)cc4-c4cn(C)nc4C(F)(F)F)C3=O)ccnc2c(OC)n1 + COC1C(OC(N)=O)C(O)C(Oc2ccc3c(O)c(NC(=O)c4ccc(O)c(CC=C(C)C)c4)c(=O)oc3c2C)OC1(C)C and give its measured viability, T/C.
68.7

Consider the molecule COc1ccc([C@@H](O)c2cc(-c3ncnc4cc(N5CCOCC5)ccc34)c(F)cc2Cl)nn1 + COC1C(OC(N)=O)C(O)C(Oc2ccc3c(O)c(NC(=O)c4ccc(O)c(CC=C(C)C)c4)c(=O)oc3c2C)OC1(C)C and give its measured viability, T/C.
85.1

Consider the molecule COc1cccc2c1C(=O)c1c(O)c3c(c(O)c1C2=O)CC(O)(C(=O)CO)CC3OC1CC(N)C(O)C(C)O1 (stereo not given) + COC1C(OC(N)=O)C(O)C(Oc2ccc3c(O)c(NC(=O)c4ccc(O)c(CC=C(C)C)c4)c(=O)oc3c2C)OC1(C)C and give its measured viability, T/C.
23.3

Consider the molecule COc1cc(C2c3cc4c(cc3C(OC3OC5COC(C)OC5C(O)C3O)C3COC(=O)C23)OCO4)cc(OC)c1O (stereo not given) + COC1C(OC(N)=O)C(O)C(Oc2ccc3c(O)c(NC(=O)c4ccc(O)c(CC=C(C)C)c4)c(=O)oc3c2C)OC1(C)C and give its measured viability, T/C.
82.6

Consider the molecule O=C(Nc1ccc(O)c(NS(=O)(=O)c2ccc(F)cc2)c1)c1ccc(-c2ccccc2)cc1 + Cc1cccc(N(C)C(=O)C2C(O)CCN2c2nc(C)cc(C(F)(F)F)c2C#N)c1 and give its measured viability, T/C.
109

---

Test system: 379773-124-R-J2-PDC spheroid viability
experiment: Anticancer human tumor 379773-124-R-J2-PDC cell line growth inhibition [POLQ];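 also: spheroids exposed to drugs for seven days before readout; percent viability relative to DMSO vehicle control taken as 100%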
study conditions: second compound 1 µM; first compound 0.1 µM; hits give low values; spheroids with HUVEC and MSC
property name: viability, T/C (%)
Quick note: give the figure in %, leave out the unit.

Example compounds with recorded viability, T/C:
compound: O=C(c1cc(Cc2n[nH]c(=O)c3ccccc23)ccc1F)N1CCN(C(=O)C2CC2)CC1 + Nc1ccc(C#CCN(C(=O)Cc2ncc(C(F)(F)F)cc2C(F)(F)F)c2ccc(F)cc2)nn1
measurement: 100

compound: C=CC(=O)N1CCN(c2nc(=O)n(-c3c(C)ccnc3C(C)C)c3nc(-c4c(O)cccc4F)c(F)cc23)C(C)C1 (stereo not given) + Nc1ccc(C#CCN(C(=O)Cc2ncc(C(F)(F)F)cc2C(F)(F)F)c2ccc(F)cc2)nn1
measurement: 85.5

compound: C=CCn1c(=O)c2cnc(Nc3ccc(N4CCN(C)CC4)cc3)nc2n1-c1cccc(C(C)(C)O)n1 + COC1C(OC(N)=O)C(O)C(Oc2ccc3c(O)c(NC(=O)c4ccc(O)c(CC=C(C)C)c4)c(=O)oc3c2C)OC1(C)C
measurement: 88.8

compound: CCc1cc2c(N3CCc4c(cc(Cn5ccnc5)cc4-c4cn(C)nc4C(F)(F)F)C3=O)cc(C)nc2c(OC)n1 + COC1C(OC(N)=O)C(O)C(Oc2ccc3c(O)c(NC(=O)c4ccc(O)c(CC=C(C)C)c4)c(=O)oc3c2C)OC1(C)C
measurement: 69.4

Consider the compound C=CCn1c(=O)c2cnc(Nc3ccc(N4CCN(C)CC4)cc3)nc2n1-c1cccc(C(C)(C)O)n1 + Nc1ccc(C#CCN(C(=O)Cc2ncc(C(F)(F)F)cc2C(F)(F)F)c2ccc(F)cc2)nn1 and give its measured viability, T/C.
97.5

---

System: 379773-124-R-J2-PDC spheroid viability
experiment: Anticancer human tumor 379773-124-R-J2-PDC cell line growth inhibition [POLQ];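 also: spheroids exposed to drugs for seven days before readout; percent viability relative to DMSO vehicle control taken as 100%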
study conditions: second compound 1 µM; first compound 1 µM; hits give low values; spheroids with HUVEC and MSC
Quick rule for you: viability, T/C under 60% gets class 1, anything else gets class 0.

Below are worked cases with known answers.
compound: CC1COCCN1c1cc(C2(S(C)(=N)=O)CC2)nc(-c2ccnc3[nH]ccc23)n1 (stereo unspecified) + COC1C(OC(N)=O)C(O)C(Oc2ccc3c(O)c(NC(=O)c4ccc(O)c(CC=C(C)C)c4)c(=O)oc3c2C)OC1(C)C
assayed target: 379773-124-R-J2-PDC spheroid viability
discrete label: class 0
//
compound: COc1cccc(OCCCN)c1-c1cc(Nc2cnc(C#N)cn2)n[nH]1 + Cc1cccc(N(C)C(=O)C2C(O)CCN2c2nc(C)cc(C(F)(F)F)c2C#N)c1
assayed target: 379773-124-R-J2-PDC spheroid viability
discrete label: class 1
//
compound: COc1cc2cc(C(=O)CCC(=O)O)sc2cc1OC + Nc1ccc(C#CCN(C(=O)Cc2ncc(C(F)(F)F)cc2C(F)(F)F)c2ccc(F)cc2)nn1
assayed target: 379773-124-R-J2-PDC spheroid viability
discrete label: class 0
//
compound: CCc1cc2c(N3CCc4c(cc(Cn5ccnc5)cc4-c4cn(C)nc4C(F)(F)F)C3=O)ccnc2c(OC)n1 + Cc1cccc(N(C)C(=O)C2C(O)CCN2c2nc(C)cc(C(F)(F)F)c2C#N)c1
assayed target: 379773-124-R-J2-PDC spheroid viability
discrete label: class 0
//
compound: CC1COCCN1c1cc(-c2ccnn2C)c2ccnc(-c3ccn[nH]3)c2n1 (stereo unspecified) + Cc1cccc(N(C)C(=O)C2C(O)CCN2c2nc(C)cc(C(F)(F)F)c2C#N)c1
assayed target: 379773-124-R-J2-PDC spheroid viability
discrete label: class 1

Let's switch to this compound now.
Determine whether this compound shows viability, T/C lower than 60% (ties excluded): C=CCn1c(=O)c2cnc(Nc3ccc(N4CCN(C)CC4)cc3)nc2n1-c1cccc(C(C)(C)O)n1 + Nc1ccc(C#CCN(C(=O)Cc2ncc(C(F)(F)F)cc2C(F)(F)F)c2ccc(F)cc2)nn1
class 1
